Test system: A549 NSCLC
procedure_details: NCI tumour cell line growth inhibition, 48 h
measured_metric: TGI

molecule	measured_metric	result_value
NS(=O)(=O)c1ccc(N=Cc2c(O)[nH]c3ccc4ncsc4c23)cc1	TGI	> 25 µM
CC1CN=C(N(Cc2ccc(F)cc2)C(=O)Nc2ccc(Cl)cc2)S1 (stereo not given)	TGI	> 100 µM
CC(/C=N/N(C)C1=NCCCN1)=N/N(C)C1=NCCCN1	TGI	> 100 µM
O=C1O[C@@H](c2ccccc2)C[C@H]1CN1CCOCC1	TGI	> 100 µM
O=C(c1ccc(Cl)cc1Cl)N(/N=C/C=C/c1ccccc1)c1nnc(-c2ccccc2)c(-c2ccccc2)n1	TGI	> 100 µM

# TGI of C/C(=N\NC(=S)Nc1ccccc1)c1nc2ncccc2[nH]1 = > 100 µM

# TGI of COc1cccc(/C=C/c2ccc(S(N)(=O)=O)cc2)c1 = > 100 µM

# TGI of COc1ccc2c(c1)oc1c(C)c3c(c(C)c12)C(=O)N(N)C3=O = > 100 µM

# TGI of CCN(CC)CCn1ncc2c3c(=O)c4cccnc4n(CCN(CC)CC)c3ccc21 = > 10 µM

====

System: SF-295 CNS
procedure_details: NCI tumour cell line growth inhibition, 48 h
measured_metric: TGI

Record excerpt, results attached:
compound	measured_metric	result_value
COC(=O)C1Cc2c([nH]c3ccccc23)C(C2CCCCC2)N1 (stereo unspecified)	TGI	> 100 µM
COc1cc(N2C(=O)C(=O)C3(CCCCC3)C2=O)cc(OC)c1OC	TGI	> 100 µM
CC1=C(C(=O)OCc2ccncc2)C(C2=C(C)SCCS2)C(C(=O)OCc2ccncc2)=C(C)N1	TGI	38 µM
CC(=O)OC1CC2CC(=O)CC1N2C (stereo unspecified)	TGI	> 100 µM

# TGI of N#Cc1c(-c2ccc(Cl)cc2)csc1NC(=O)Nc1ccc(Cl)c(C(F)(F)F)c1 = 1.87 µM

# TGI of CNc1ccc(/C=C2\C=Cc3ccccc32)cc1 = 99 µM

# TGI of CCOC(=O)c1ccc2c(c1)[n+](=O)c(C(=O)C1CCCS1)c(C(F)(F)F)n2[O-] (stereo unspecified) = 2.07 µM

====

Test system: HCT-15 colon
procedure_details: NCI tumour cell line growth inhibition, 48 h
*1 amine or outer side, *2 acyl side, *3 side chain or, on linkers, in order; H or OH if unused. Where a SMILES comes first, the peptide text is derived from it. [ ]: non-standard residue; d: D form. ξ: configuration not given here. Ile(3ξ) = CCC(C)[C@H](N)C(=O)O; X33 = C=CCC(O[*:1])C(=O)[*:2]; NMeV = CN[C@H](C(=O)O)C(C)C; NMeA = CN[C@@H](C)C(=O)O; βAla = NCCC(=O)O
# TGI values compiled below

compound	TGI
CC(C)N(C(=O)C12C3C4C1C1C2C3C41C(=O)O)C(C)C (stereo not drawn)	> 100 µM
O=C(CCC(C(=O)OCc1ccccc1)C(=O)OCc1ccccc1)Nc1ccc(OCc2ccccc2)cc1	79.4 µM
CC(/C=N/N(C)C1=NCCCN1)=N/N(C)C1=NCCCN1	> 100 µM
CC1=C(C(=O)OCc2ccncc2)C(C2=C(C)SCCS2)C(C(=O)OCc2ccncc2)=C(C)N1	64.7 µM
O=C1C(Cl)C(c2cc(Br)cc(Br)c2O)N1n1cnc2ccccc2c1=O (stereo not drawn)	> 100 µM
CC1(C)OC(=O)C(c2cccs2)C(=O)O1	> 100 µM

# TGI of C[CH2][Sn]([CH2]C)([O]C(=O)c1cccc(OC)c1)[O][Sn]([CH2]C)([CH2]C)[O]C(=O)c1cccc(OC)c1 = 35.4 µM

# TGI of CCN(C(=N)C#N)c1ccccc1 = > 69.2 µM

# TGI of N#Cc1c(-c2ccc([N+](=O)[O-])cc2)cc(-c2ccc(Nc3ccnc4cc(C(F)(F)F)ccc34)cc2)[nH]c1=O = > 100 µM

# TGI of COc1ccc(C23OCC(Cc4cc(OC)c(OC)cc42)C3COC(C)=O)cc1OC (stereo not drawn) = > 100 µM

# TGI of COc1nc(NC2OC(COC(C)=O)C(OC(C)=O)C(OC(C)=O)C2OC(C)=O)c2c(OC(C)=O)c(C)c(=O)oc2n1 (stereo not drawn) = > 100 µM

# TGI of O=C(CN=C(CN(c1ccccc1)c1ccccc1)Oc1c(Cl)cc(Cl)cc1Cl)N1c2ccccc2Sc2ccccc21 = > 100 µM

# TGI of O=[N+]([O-])c1ccc2[nH]c3c(-c4ccccc4)nccc3c2c1 = > 74.7 µM

# TGI of C=CCC1OC(=O)CCNC(=O)[C@H](C)N(C)C(=O)[C@H](C(C)C)N(C)C(=O)[C@H](C(C)CC)NC(=O)[C@@H]2CCCN2C1=O (stereo partly drawn) (cyclo([Ile(3ξ)][NMeV][NMeA][βAla][X33]P)) = > 100 µM

# TGI of CC(=O)[CH-]C(=O)c1ccccc1.CC(=O)[CH-]C(=O)c1ccccc1.CCN(CC)CC[O-].CCN(CC)CC[O-].Cl.[Hf+4] = > 100 µM

# TGI of COc1ccc(C(c2ccc(C(C)C)cc(OC)c2=O)c2ccc(C(C)C)cc(OC)c2=O)cc1 = 25.3 µM

# TGI of COC(=O)C1(NC(=O)C(CC(=O)OCc2ccccc2)NC(=O)OCc2ccccc2)CCCCCCC1 (stereo not drawn) = > 100 µM

# TGI of CCNCCCn1c2c(c3ccc(F)cc3c1=O)C(=O)c1cc(OC)cnc1-2 = 3.32 µM

# TGI of O=C(c1ccc(Cl)cc1Cl)N(/N=C/C=C/c1ccccc1)c1nnc(-c2ccccc2)c(-c2ccccc2)n1 = > 100 µM

# TGI of CN(C)CCN=C1c2ccccc2-c2c(=O)n(CCN(C)C)c(O)c3cccc1c23 = 0.245 µM

# TGI of CCOC(=O)C1C(c2ccccc2)=C(c2ccccc2)C(c2ccccc2)=C1c1ccccc1 = > 100 µM

# TGI of O=C1c2ccccc2-c2ccccc2C(=O)C1(Br)Br = 25 µM

# TGI of O=C1NC2c3c(I)sc(I)c3/C(=N\O)C2O1 (stereo not drawn) = > 100 µM

# TGI of CN(C)c1nc(=Nc2ccc3c(c2)OCO3)ss1 = > 100 µM

# TGI of N#Cc1c(-c2ccc(Cl)cc2)csc1NC(=O)Nc1ccc(Cl)c(C(F)(F)F)c1 = 5.4 µM

# TGI of Cc1c(S(=O)(=O)/N=C(\NN)Nc2ccc(Cl)cc2)sc2ccc(Cl)cc12 = 34.4 µM

# TGI of CCNCCCCNCCCCNCCCCNCCCCNCC = > 100 µM

# TGI of O=C(C=P(c1ccccc1)(c1ccccc1)c1ccccc1)c1ccc(-c2cccc([N+](=O)[O-])c2)cc1 = 12.7 µM

# TGI of Cc1c(NC(=O)/C(=N/NC(=S)N=N)C2C(=O)CC(C)(C)CC2=O)c(O)c2ccccc2c1O = 18.8 µM

# TGI of COC(=O)Cc1cccc2c1CCC2=O = > 100 µM

# TGI of COC1=CC(=O)c2c(ccc3ncnc(N)c23)C1=O = 4.13 µM

These entries and their values trace back to PubChem BioAssay (NCI).
